# system_tested: D. immitis Slo-1 (Dirofilaria immitis)
# Sequence (I0DFK5 1-1119): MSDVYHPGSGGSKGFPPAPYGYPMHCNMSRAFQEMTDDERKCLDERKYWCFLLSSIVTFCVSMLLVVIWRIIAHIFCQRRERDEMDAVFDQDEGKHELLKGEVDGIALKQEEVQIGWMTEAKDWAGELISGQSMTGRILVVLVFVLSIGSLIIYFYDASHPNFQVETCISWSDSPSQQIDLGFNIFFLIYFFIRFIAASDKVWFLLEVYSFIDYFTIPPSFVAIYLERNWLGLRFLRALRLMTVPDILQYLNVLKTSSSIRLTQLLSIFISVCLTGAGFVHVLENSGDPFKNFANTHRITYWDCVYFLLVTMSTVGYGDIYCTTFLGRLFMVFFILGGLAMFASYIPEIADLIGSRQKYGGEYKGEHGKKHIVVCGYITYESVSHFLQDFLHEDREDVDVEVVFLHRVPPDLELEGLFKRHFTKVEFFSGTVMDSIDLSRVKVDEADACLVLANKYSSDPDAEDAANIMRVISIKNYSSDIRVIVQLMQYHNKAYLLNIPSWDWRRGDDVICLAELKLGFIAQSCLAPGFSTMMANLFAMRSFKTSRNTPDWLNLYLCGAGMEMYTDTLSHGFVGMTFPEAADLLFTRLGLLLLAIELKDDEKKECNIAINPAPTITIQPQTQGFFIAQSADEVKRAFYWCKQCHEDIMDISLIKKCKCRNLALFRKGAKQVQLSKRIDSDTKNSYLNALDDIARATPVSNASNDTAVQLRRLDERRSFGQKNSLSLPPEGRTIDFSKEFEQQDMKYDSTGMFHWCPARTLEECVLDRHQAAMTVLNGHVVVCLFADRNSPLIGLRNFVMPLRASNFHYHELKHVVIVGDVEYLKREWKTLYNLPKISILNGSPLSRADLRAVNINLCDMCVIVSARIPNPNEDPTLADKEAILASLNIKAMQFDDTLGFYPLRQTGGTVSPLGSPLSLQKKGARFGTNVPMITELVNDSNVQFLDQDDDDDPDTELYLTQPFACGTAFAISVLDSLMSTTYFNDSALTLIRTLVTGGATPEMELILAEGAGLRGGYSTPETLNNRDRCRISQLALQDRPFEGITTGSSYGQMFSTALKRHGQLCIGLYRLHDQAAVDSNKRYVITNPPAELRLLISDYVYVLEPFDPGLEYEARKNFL
# protocol_description: D. immitis Slo-1, action at a recombinant CHO cell line (membrane potential, FLIPR)
pEC50: −log10 of the molar value.
quantity: pEC50

CN(C)c1c(C(=O)N[C@H]2CCOc3ccccc32)cnc2c(-c3cccc(Cl)c3Cl)ncc(F)c12 : 6.50 to 7.50
CN(C)c1c(C(=O)N[C@H]2CCOc3ccccc32)cnc2c(-c3cc(F)cc(F)c3F)ncc(F)c12 : 6.50 to 7.50
O=C(N[C@H]1CCOc2ccccc21)c1cnc2c(-c3cccc(Cl)c3Cl)c(F)cnc2c1N1CCOCC1 : 7.50 to 8.50

Now look at this one.
Task: Quick one: pEC50 for `O=C(N[C@H]1CCOc2ccccc21)c1cnc2c(-c3cc(F)cc(F)c3F)ncc(F)c2c1N1CCOCC1` ?
Output: 6.50 to 7.50

----------
# System: Cooperia curticei
# protocol_description: Cooperia curticei larval mortality
# cond: 120 h, read-out: activity (percentage of larval mortality)
The entries below are paired with their reported mortality at 4 ppm.

Consider the following illustrative entries.
CN(C)c1c(C(=O)N[C@H]2CCOc3ccccc32)cnc2c(-c3cc(Cl)cc(Cl)c3)ccnc12 [Example T3-1] : 100%
CN(C)c1c(C(=O)N[C@H]2CCOc3ccccc32)cnc2c(-c3cccc(Cl)c3Cl)ccnc12 [Example T3-3] : 100%

Now look at this one.
Task: Query the reported mortality at 4 ppm for Cooperia curticei; item: O=C(N[C@H]1CCOc2ccccc21)c1cnc2c(-c3cccc(Cl)c3Cl)cncc2c1N1CCOCC1 [Example T2-3]
Output: 80%

----------
# Test system: Cooperia curticei
# protocol_description: Cooperia curticei larval mortality
# cond: 120 h, read-out: activity (percentage of larval mortality)
The entries below are paired with their reported mortality at 20 ppm.
Entry rule: numbers only, all in %.

Consider the following illustrative entries.
COc1c(C(=O)N[C@H]2CCOc3ccccc32)nnc2c(-c3cccc(Cl)c3)cccc12 : 80
CN(C)c1c(C(=O)N[C@H]2CCOc3ccccc32)cnc2c(-c3cccc(Cl)c3Cl)ccnc12 : 100
O=C(N[C@H]1CCOc2ccccc21)c1cnc2c(-c3cc(Cl)cc(Cl)c3)ccnc2c1N1CCOCC1 : 90
O=C(N[C@H]1CCOc2ccccc21)c1cnc2c(-c3cc(Cl)cc(Cl)c3)nccc2c1N1CCOCC1 : 100
O=C(N[C@H]1CCOc2ccccc21)c1cnc2c(-c3cccc(Cl)c3Cl)cnnc2c1N1CCOCC1 : 90
O=C(N[C@H]1CCOc2ccccc21)c1cnc2c(-c3cccc(Cl)c3Cl)ccnc2c1N1CCOCC1 : 100
CN(C)c1c(C(=O)N[C@H]2CCOc3ccccc32)nnc2c(-c3cccc(Cl)c3)cccc12 : 80
CN(C)c1c(C(=O)N[C@H]2CCOc3ccccc32)cnc2c(-c3cc(Cl)cc(Cl)c3)ncnc12 : 80
CN(C)c1c(C(=O)N[C@H]2CCOc3ccccc32)cnc2c(-c3cccc(Cl)c3Cl)cnnc12 : 90
CN(C)c1c(C(=O)N[C@H]2CCOc3ccccc32)cnc2c(-c3cc(Cl)cc(Cl)c3)nccc12 : 100

Task: Query the reported mortality at 20 ppm for Cooperia curticei; item: `O=C(N[C@H]1CCOc2ccccc21)c1cnc2c(-c3cc(F)cc(F)c3F)nccc2c1N1CCOCC1`
Output: 100

Task: And for `O=C(N[C@H]1CCOc2ccccc21)c1cnc2c(-c3cccc(Cl)c3Cl)cncc2c1N1CCOCC1` ?
Output: 100

Task: And for `COc1c(C(=O)N[C@H]2CCOc3ccccc32)nnc2c(-c3cccc(Cl)c3Cl)cccc12` ?
Output: 100

Task: And for `CN(C)c1c(C(=O)N[C@H]2CCOc3ccccc32)nnc2c(-c3cccc(Cl)c3Cl)cccc12` ?
Output: 80

Task: And for `COc1c(C(=O)N[C@H]2CCOc3ccccc32)nnc2c(-c3cc(Cl)cc(Cl)c3)cccc12` ?
Output: 80
